Data provenance: paper PMC8305768

Reported % inhibition ± SD at 10 μΜ CYP1A2 values follow for various compounds
# TEST TARGET: CYP1A2 (Homo sapiens, UniProt P05177)
# Construct: purchased Corning Inc; host or cells: baculovirus-infected insect cells
# Sequence (P05177 2-516 limits assumed): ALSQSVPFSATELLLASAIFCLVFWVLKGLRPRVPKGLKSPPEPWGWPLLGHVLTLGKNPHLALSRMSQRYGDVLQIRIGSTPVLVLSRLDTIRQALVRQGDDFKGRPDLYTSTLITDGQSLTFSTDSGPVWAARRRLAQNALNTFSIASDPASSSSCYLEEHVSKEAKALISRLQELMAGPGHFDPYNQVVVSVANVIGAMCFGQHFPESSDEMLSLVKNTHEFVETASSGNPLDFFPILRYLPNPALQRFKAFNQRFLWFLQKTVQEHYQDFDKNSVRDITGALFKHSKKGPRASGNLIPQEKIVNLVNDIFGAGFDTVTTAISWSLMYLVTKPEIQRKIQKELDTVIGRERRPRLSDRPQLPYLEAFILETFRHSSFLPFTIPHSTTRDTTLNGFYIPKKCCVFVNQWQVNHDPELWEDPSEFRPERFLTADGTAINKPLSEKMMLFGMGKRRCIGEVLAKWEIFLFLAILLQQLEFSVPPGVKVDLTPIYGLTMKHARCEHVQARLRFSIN
# ASSAY REMARKS: Cytochrome P450 inhibition assay (P450-Glo) CYP1A2
# Assay type: in vitro ADME
# MEASUREMENT SETUP: compounds 10 μM; miltefosine 10 μM or 1 μM
REPORTED ENDPOINT: % inhibition ± SD at 10 μΜ CYP1A2 (%)

[
  {
    "COMPOUND": "CCCCCCCc1nnc(CCCCCCCCCCOP(=O)([O-])OCC[N+](C)(C)C)o1 [Compound 65]",
    "ASSAY VALUE": 18.05
  },
  {
    "COMPOUND": "C[N+](C)(C)CCOP(=O)([O-])OCCCCCCCCCCCn1cc(CCCCCCCCN)nn1 [Compound 36]",
    "ASSAY VALUE": 3.18
  },
  {
    "COMPOUND": "C[N+](C)(C)CCOP(=O)([O-])OCCCCCn1cc(CCCCCCCCN)nn1 [Compound 35]",
    "ASSAY VALUE": 9.42
  },
  {
    "COMPOUND": "CCCCCCCCc1noc(CCCCCCCCCCOP(=O)([O-])OCC[N+](C)(C)C)n1 [Compound 54]",
    "ASSAY VALUE": 9.37
  },
  {
    "COMPOUND": "CCCCCCCCCCCc1nnc(CCCCCCCCCCOP(=O)([O-])OCC[N+](C)(C)C)o1 [Compound 66]",
    "ASSAY VALUE": 12.37
  },
  {
    "COMPOUND": "CCCCCCCCCCc1cc(CCCCCCCCCCOP(=O)([O-])OCC[N+](C)(C)C)no1 [Compound 41]",
    "ASSAY VALUE": 10.86
  }
]
